experiment: yeast display, Sf9 membrane polyspecificity reagent, FACS + sequencing; frameworks hold sequencing errors
readout_kind: polyreactivity (PSR sort gate)

[[record]]
sequence = "QVQLVESGGGLVQAGGSLRLSCAASGRIIGLYTMGWYRQAPGKERELVAAINIRGTRTYYADSVKGRFTISRDNAKNTVYLQMNSLKPEDTSVYYCARSPVVVGSFLSYDYWGQGTQVTVSS"
readout_value = "high polyreactivity"

[[record]]
sequence = "QVQLVESGGGLVQAGGSLRLSCAPSVRIFGTNAMGWYRQAPGTERELVADITSGGSTNYADSVKGRFTISRDNAKNTVYLQMISLKPEDTAVYYCAADVIGDLRWYRDEYWGQGTQVTVSS"
readout_value = "low polyreactivity"

[[record]]
sequence = "QVHLVESGGGLVQAGGSLRLSCAASGFTFYYYAMGWYRQAPGKERELVAAISDSGGITYYADSVKGRFTISRDNAKNTVYLQMNSLKPEDTAVYYCAADFATPGPEYDYWGQGTQVTVSS"
readout_value = "low polyreactivity"

[[record]]
sequence = "QVQLVESGGGIVQAGGSLRLSCAASGFIFSYYVMGWYRQAPGKEREFVAAITYSGTYTYYADSVKGRFTISRDNAKNTVYLQMNSLKPEDTAVYYCAAYSPRYNAHDYWGQGTQVTVSS"
readout_value = "high polyreactivity"

[[record]]
sequence = "HVQLQEIGGGLVQAGDSQRLSCAASGNIFRFTDMGRYRQAPGKERELVAAINAGSTTYYAASVKGRFTISRDNAKNTVYLQMNSLKPEDTAVYYCNALYSYKYGRKYDYWGQGTQVTVSS"
readout_value = "high polyreactivity"


====

assay: yeast display, Sf9 membrane polyspecificity reagent, FACS + sequencing; frameworks hold sequencing errors
readout_kind: polyreactivity (PSR sort gate)

[[record]]
sequence = "QVQLVESGGGLVQAGGSLRLSCAASGRIFLVYAMGGSRQAPGKDRELVAAISWSTGSTYYADSVKGRFTISRDNAKNTVYLQMNSLKPEDTAVYYCAAEPELDEYEHDYWGQGTQVTVSS"
readout_value = "low polyreactivity"

[[record]]
sequence = "QVQLVESGGGLVQAGGSLRLSCAASGSTLRTYAMGWYRQAPGKERELVAAISFSTTSTYYADSVKGRFTISRDNAKNTVYLQMNSLKPEDTAGYDCAAGPRTRYQPDLPGCYYSWGQGTQVTVSS"
readout_value = "high polyreactivity"

[[record]]
sequence = "QVQLVESGGGLVQAGGSLRLSCAASGSTSYTNAMGWYRPAPGKERELVAGITRSGDSTYYADSVKGRFTISRDNAKNTVYLQMNSLKPEDTAVYYCAADIGDYWWGYYTGYYYWGQGTQVTVSS"
readout_value = "high polyreactivity"

[[record]]
sequence = "QVQLVESGGGLVQAGGSLRLSCAASGSTFRSYAMGWYRQAPGKERELVAVISSGDSTYYADSVKGRFTISRDNAKNTVYLQMNSLKPEDTAVYYSAADSYVLGRWYGYWGQGTQVTVSS"
readout_value = "low polyreactivity"

[[record]]
sequence = "QVQLVESGGCLVKAGCSLRLSCAASGRIFFVNAMGWYRPAPGKECELVAAISRGGSTNYADSVKGRFTISRDNAMNTVYLQMNILKPEDTEVYYCAAGYVRYPGVIDEYWGPGTQVTVSS"
readout_value = "low polyreactivity"

[[record]]
sequence = "QVQLVESGGGLVQAGAILRVSCAASGISLQYAMGCYRQAPGKERELVASISSRGTSTYYADSVKGRFTISRDNAKNTVYLQMNSLKPEDTAVYYCAARVRWWSPGGYWGQGTQVTVSS"
readout_value = "high polyreactivity"

[[record]]
sequence = "QVQLVESGGGLVQAGGSLRLSCAASGSTFFYYAMGWYRQAPGKERELVAAITSSGGRTYYADSVKGRFTISRDNAKNTVYLQMNSLKPEDTAVYYCAARDYRQSRYEYWGQGTQVTVSS"
readout_value = "high polyreactivity"

[[record]]
sequence = "QVQLVESGGGLVQAGGSLRLSCAASGFIFDPYAMGWYRQAPGKERELVAAISRGGSTYYADSVKGRFTISRDNAKNIVYLQMNSLKPEDTAVYYCAAVFKFTREYSTGIRYYYWGQGTQVTVSS"
readout_value = "high polyreactivity"

[[record]]
sequence = "QVQLQESGGGQVHAGGSLRLSCAASGTIFLYAYMGWYRQAPGKERELVAAIDVGTTTNYADSVKGRFTISRDNAKNTVYLQMNSLKPEDTAVYYCAANLGYLDDLGYWGQGTQETVSS"
readout_value = "low polyreactivity"

[[record]]
sequence = "QVQLVESGGGLVQAGGSLRLSCAASGFTLYFYVMGWYRQAPGKERELVAAITSGGSTYYADSVKGRFTISRDNAKNTVYLQMNSLKPEDTAVYYCAARRSPSRRYLGNYWGQGTQVTVSS"
readout_value = "high polyreactivity"

[[record]]
sequence = "QVQLVESGGGLVQAGGSLRLSCAASGYTFGSYAMGWYRQAPGKERELVAAITRRGGSTYYADSVKGRFTISRDNAKNTVYLQMTSLKPEDTEVYYCAKRSRDYVSSFLTSHANDYWGQGTQVTVSS"
readout_value = "high polyreactivity"


src = the nanobody polyreactivity screen of Harvey et al. (2022)
